target desc: Monoamine oxidase B (MAO-B) (Rattus norvegicus)
Construct: Whole rat brains were homogenized in a 10-fold volume of ice cooled 0.32 mM sucrose solution
Sequence (P19643 whole entry): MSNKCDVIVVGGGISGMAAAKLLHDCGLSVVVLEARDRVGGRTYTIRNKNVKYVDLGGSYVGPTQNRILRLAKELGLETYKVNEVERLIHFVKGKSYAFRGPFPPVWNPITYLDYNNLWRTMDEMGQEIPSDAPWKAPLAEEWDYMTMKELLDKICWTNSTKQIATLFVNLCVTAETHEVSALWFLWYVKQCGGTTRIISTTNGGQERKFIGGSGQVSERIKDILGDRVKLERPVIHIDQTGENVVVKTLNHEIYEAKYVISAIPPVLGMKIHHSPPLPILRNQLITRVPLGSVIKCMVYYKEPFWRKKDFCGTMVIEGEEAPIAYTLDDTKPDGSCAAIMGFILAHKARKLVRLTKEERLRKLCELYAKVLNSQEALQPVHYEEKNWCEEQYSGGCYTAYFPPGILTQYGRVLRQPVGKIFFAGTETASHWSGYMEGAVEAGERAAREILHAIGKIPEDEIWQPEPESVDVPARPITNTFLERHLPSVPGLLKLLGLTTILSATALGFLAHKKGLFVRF
protocol text: Monoamine oxidase B (MAO-B) inhibitory activity
Where a name gives a salt, the structure may show the parent alone.
experimental readout: IC50 (nM)
Answer with a number only, understood to be in nM.

IC50 reported for this molecule CCCN1CCCCC12CCc1cc(OCc3ccsc3)ccc1C2 (stereo not shown) [Example 9-45, hydrochloride] : 60

These measurements were taken from patent US5591849A.
